# SYSTEM UNDER TEST: PRMT5 (Homo sapiens, UniProt O14744)
# Construct: purchased Viva (custom protein)
# Sequence (O14744 whole entry): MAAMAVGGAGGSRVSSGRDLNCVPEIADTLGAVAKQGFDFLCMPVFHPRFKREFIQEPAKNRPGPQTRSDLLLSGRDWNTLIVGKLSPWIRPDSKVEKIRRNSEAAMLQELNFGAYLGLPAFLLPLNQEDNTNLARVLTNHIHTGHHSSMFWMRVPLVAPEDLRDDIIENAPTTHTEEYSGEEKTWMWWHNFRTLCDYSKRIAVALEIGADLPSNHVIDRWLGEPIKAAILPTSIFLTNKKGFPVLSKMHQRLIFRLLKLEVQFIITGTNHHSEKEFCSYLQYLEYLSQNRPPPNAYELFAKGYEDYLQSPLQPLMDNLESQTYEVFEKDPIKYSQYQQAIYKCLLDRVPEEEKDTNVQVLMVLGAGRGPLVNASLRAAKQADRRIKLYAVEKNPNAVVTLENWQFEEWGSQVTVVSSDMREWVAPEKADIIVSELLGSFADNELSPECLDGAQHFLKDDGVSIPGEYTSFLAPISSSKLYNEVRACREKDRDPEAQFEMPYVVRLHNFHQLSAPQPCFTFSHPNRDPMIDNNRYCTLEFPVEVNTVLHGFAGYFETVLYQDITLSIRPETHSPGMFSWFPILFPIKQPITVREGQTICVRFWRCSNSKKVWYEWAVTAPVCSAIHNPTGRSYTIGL
# Sequence (Q9BQA1 whole entry partner): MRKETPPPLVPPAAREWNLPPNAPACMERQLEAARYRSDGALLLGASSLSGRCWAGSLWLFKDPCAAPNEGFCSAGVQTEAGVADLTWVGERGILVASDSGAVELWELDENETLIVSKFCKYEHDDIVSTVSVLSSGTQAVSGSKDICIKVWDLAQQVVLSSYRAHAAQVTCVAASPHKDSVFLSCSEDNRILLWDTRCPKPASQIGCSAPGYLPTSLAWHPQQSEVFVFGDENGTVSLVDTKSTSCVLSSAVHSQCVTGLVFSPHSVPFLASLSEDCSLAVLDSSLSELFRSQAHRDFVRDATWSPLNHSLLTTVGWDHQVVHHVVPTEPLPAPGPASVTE
# MEASUREMENT DESCRIPTION: PRMT5 biochemical IC50 assay with no cofactor
# STATED CONDITIONS: PRMT5, no cofactor; read-out: No Cofactor/rel IC50
MEASURED ENDPOINT: IC50

Consider the worked cases shown below.
> print(dat)
                                   compound  readout.value
1  COc1ncc(NC(=O)C(=O)N2C[C@H](C)CC[C@H]2c2ccc(C)nc2)cc1C(N)=O (single isomer, unassigned) [Compound 754]   50 to 500 nM
2  COc1ncc(NC(=O)C(=O)N2C[C@@H](C)CC[C@H]2C2CCCCC2)cc1C(N)=O (single isomer, unassigned) [Compound 371]       > 500 nM
3  Cc1cc(NC(=O)C(=O)N2C[C@H](C)CC[C@H]2c2cscn2)cnc1N (single isomer, unassigned) [Compound 1028]       > 500 nM
4  Cc1cc(NC(=O)C(=O)N2C[C@@H](C)CC[C@@H]2c2ccc3snc(C)c3c2)cnc1N (single isomer, unassigned) [Compound 1166]        < 50 nM
5  CCc1cc(NC(=O)C(=O)N2C[C@@H](C)CC[C@@H]2c2ccc3sc(C[C@@H](C)N(C)C)nc3c2)cnc1N [Compound 1198]        < 50 nM

Batch of 4 compounds: report IC50 for each.
1. NC(=O)c1cncc(NC(=O)C(=O)N2C[C@@H](CC(F)(F)F)CC[C@H]2c2ccccc2)c1 (racemic) [Compound 318]
2. Cc1cc(NC(=O)C(=O)N2C[C@@H](C)CC[C@@H]2c2ccc3c(c2)CNC3=O)cnc1N (single isomer, unassigned) [Compound 591]
3. C[C@H]1CN(C(=O)C(=O)Nc2cncc(C(N)=O)c2)[C@H](c2ccccc2)CC1(F)F (single isomer, unassigned) [Compound 457]
4. C[C@@H]1CC[C@@H](c2cc3cn[nH]c3s2)N(C(=O)C(=O)Nc2cncc(C(N)=O)c2)C1 (single isomer, unassigned) [Compound 943]

> 500 nM
> 500 nM
50 to 500 nM
< 50 nM

###

Please provide measured pIC50 for the entries that follow.
# SYSTEM UNDER TEST: PRMT5 (Homo sapiens)
# Construct: purchased Viva (custom protein)
# MEASUREMENT DESCRIPTION: PRMT5 biochemical IC50 assay with no cofactor
# STATED CONDITIONS: PRMT5, no cofactor; read-out: No Cofactor/ rel IC50
pIC50: −log10 of the molar value.

> print(dat)
                                   compound     system.under.test  measured.endpoint  readout.value
1  Cc1cc(NC(=O)C(=O)N2CCCC[C@H]2c2cccs2)cnc1N (single isomer, unassigned) [Compound 22]  PRMT5 (Homo sapiens)              pIC50         < 6.30

Batch of 2 compounds: report pIC50 for each.
1. CCc1cc(NC(=O)C(=O)N2C[C@@H](C)CC[C@@H]2c2ccc3sc(C45CCN(CC4)C5)nc3c2)cnc1N [Compound 1298]
2. C[C@H]1CC[C@H](c2ccc3c(c2)CCN(C)C3)N(C(=O)C(=O)Nc2cnc(N)c(C3CC3)c2)C1 [Compound 1264]

> 7.30
> 7.30
